procedure.details: Single-dose PK in monkey
Assay type: in vivo
assay.conditions: male, cynomolgus monkey, plasma, 1 mg/kg, IV, dose 1, 70% PEG400/H2O, free base measured
measurement.type: C0 (ng/mL)
Please reply with the bare figure in ng/mL and do not write the unit itself.

Output measured C0 for this item: NC(=O)[C@H]1CCN(c2ncnc(N)c2F)C[C@@H]1N1CCC[C@@H](Nc2cc(Cl)cc(C(F)(F)F)c2)C1=O
1600

----------
procedure.details: Phase 1a single-dose study in humans, Stage 1: pharmacokinetics
Format: in vivo, human
assay.conditions: both sexes, human, plasma; 50-300 mg single oral dose; read-out: Mean t1/2 values across all dose cohorts
measurement.type: half-life

Output measured half-life for this item: NC(=O)[C@H]1CCN(c2ncnc(N)c2F)C[C@@H]1N1CCC[C@@H](Nc2cc(Cl)cc(C(F)(F)F)c2)C1=O
7.43 to 17 h

----------
procedure.details: Single-dose PK in dog
Type: in vivo, male beagle dogs
assay.conditions: beagle, plasma, 1 mg/kg, IV, dose 1, 70% PEG400/H2O, free base measured
measurement.type: half-life (min)
Please reply with the bare figure in min and do not write the unit itself.

Output measured half-life for this item: NC(=O)[C@H]1CCN(c2ncnc(N)c2F)C[C@@H]1N1CCC[C@@H](Nc2cc(Cl)cc(C(F)(F)F)c2)C1=O
48

----------
procedure.details: Single-dose PK in dog
Assay type: in vivo, male beagle dogs
assay.conditions: male, beagle, plasma, 5 mg/kg, PO, dose not given, 0.1% CMC/0.2% Tween, read-out: % F (oral bioavailability)
measurement.type: bioavailability

Output measured bioavailability for this item: NC(=O)[C@H]1CCN(c2ncnc(N)c2F)C[C@@H]1N1CCC[C@@H](Nc2cc(Cl)cc(C(F)(F)F)c2)C1=O
65%

----------
procedure.details: Solubility of Compound 2 in solvent systems (slurries, HPLC)
Assay type: physicochemical
assay.conditions: organic solvent or mixture, thermodynamic from solid; Ethanol; after one day at 20° C.
measurement.type: solubility at 1 day (mg/mL)
Please reply with the bare figure in mg/mL and do not write the unit itself.

Output measured solubility at 1 day for this item: NC(=O)[C@H]1CCN(c2ncnc(N)c2F)C[C@@H]1N1CCC[C@@H](Nc2cc(Cl)cc(C(F)(F)F)c2)C1=O
21

----------
procedure.details: Phase 1a single-dose study in humans, Stage 1: pharmacokinetics
Type: in vivo, human
assay.conditions: both sexes, human, plasma, oral; Cohort 2 (100 mg); mean (SD), N 6
measurement.type: Cmax
Write your answer as a measured quantity: the number, then the unit.

Output measured Cmax for this item: NC(=O)[C@H]1CCN(c2ncnc(N)c2F)C[C@@H]1N1CCC[C@@H](Nc2cc(Cl)cc(C(F)(F)F)c2)C1=O
3400 ng/mL

----------
procedure.details: Solubility of Compound 2 in solvent systems (slurries, HPLC)
Format: physicochemical
assay.conditions: organic solvent or mixture, thermodynamic from solid; Acetone; after one day at 20° C.
measurement.type: solubility at 1 day
Write your answer as a measured quantity: the number, then the unit.

Output measured solubility at 1 day for this item: NC(=O)[C@H]1CCN(c2ncnc(N)c2F)C[C@@H]1N1CCC[C@@H](Nc2cc(Cl)cc(C(F)(F)F)c2)C1=O
11 mg/mL

----------
procedure.details: Solubility of Compound 2 in solvent systems (slurries, HPLC)
Format: physicochemical
assay.conditions: organic solvent or mixture, thermodynamic from solid; Isopropyl acetate; after one day at 20° C.
measurement.type: solubility at 1 day (µg/mL)
Please reply with the bare figure in µg/mL and do not write the unit itself.

Output measured solubility at 1 day for this item: NC(=O)[C@H]1CCN(c2ncnc(N)c2F)C[C@@H]1N1CCC[C@@H](Nc2cc(Cl)cc(C(F)(F)F)c2)C1=O
1000
